# tested_system: Histamine H3 receptor (Rattus norvegicus)
# test_summary: Binding affinity at rat cortical Histamine H3 receptor
pKi: −log10 of the molar value.
Given measured pKi, output true (1) if it is greater than or equal to 7 and false (0) if not.

// known answers, use as guide
C[C@@]1(O)CCN(CCCOc2ccc(-c3ccc(C#N)cc3)cc2)C1	true (1)
CCOC(=O)N1CCN(CCCOc2ccc(-c3cc[nH]c3)cc2)CC1	true (1)
C[C@@H]1CC[C@@H](C)N1CCCOc1ccc(-c2ccc(C#N)cc2)cc1	true (1)

Determine whether this compound has pKi no lower than 7: N#Cc1ccc(-c2ccc(OCCCN3CCCNCC3)cc2)cc1
true (1)

Determine whether this compound has pKi no lower than 7: CCOC(=O)N1CCN(CCCOc2ccc(-c3ccsc3)cc2)CC1
false (0)

Determine whether this compound has pKi no lower than 7: N#Cc1ccc(-c2ccc(OCCCN3CCNCC3)cc2)cc1
false (0)

Determine whether this compound has pKi no lower than 7: CC1CCCC(C)N1CCCOc1ccc(-c2ccc(C#N)cc2)cc1 (stereo unspecified)
true (1)

Determine whether this compound has pKi no lower than 7: N#Cc1ccc(-c2ccc(OCCCN3CCC(O)CC3)cc2)cc1
true (1)

---

# tested_system: Histamine H3 receptor (Rattus norvegicus, UniProt Q9QYN8)
# Sequence (Q9QYN8 whole entry): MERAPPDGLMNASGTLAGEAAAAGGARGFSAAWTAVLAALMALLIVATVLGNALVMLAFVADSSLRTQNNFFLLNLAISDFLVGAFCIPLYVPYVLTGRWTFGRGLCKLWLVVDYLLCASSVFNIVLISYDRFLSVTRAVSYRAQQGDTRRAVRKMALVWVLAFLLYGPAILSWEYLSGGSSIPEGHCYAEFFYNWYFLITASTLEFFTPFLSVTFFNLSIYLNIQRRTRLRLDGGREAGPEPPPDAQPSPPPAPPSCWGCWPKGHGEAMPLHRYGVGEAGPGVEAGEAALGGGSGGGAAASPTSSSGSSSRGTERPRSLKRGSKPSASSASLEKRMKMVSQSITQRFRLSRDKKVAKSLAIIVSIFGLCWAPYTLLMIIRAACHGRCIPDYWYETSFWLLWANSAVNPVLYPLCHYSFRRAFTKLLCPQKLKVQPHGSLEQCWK
# test_summary: Binding affinity at rat cortical Histamine H3 receptor
Labelling: Ki reported below 30 nM becomes Fulfilled; at or above becomes Not fulfilled.

// known answers, use as guide
CCOC(=O)N1CCN(CCCOc2ccc(-c3ccc(OC(F)(F)F)cc3)cc2)CC1	Not fulfilled
CC1CCCN(CCCOc2ccc(-c3ccc(C#N)cc3)cc2)C1 (stereo unspecified)	Fulfilled
CCOC(=O)N1CCN(CCCOc2ccc(-c3ccc(C#N)cc3)cc2)CC1	Fulfilled
CCOC(=O)N1CCN(CCCOc2ccc(-c3cccs3)cc2)CC1	Not fulfilled
CC1CCCCN1CCCOc1ccc(-c2ccc(C#N)cc2)cc1 (stereo unspecified)	Fulfilled

Would you kindly look at the next entry?
API: query returns whether the molecule falls strictly under 30 nM in Ki. Query: CC1CCN(CCCOc2ccc(-c3ccc(C#N)cc3)cc2)CC1
Fulfilled

---

# tested_system: Histamine H1 receptor (Homo sapiens, UniProt P35367)
# Sequence (P35367 whole entry): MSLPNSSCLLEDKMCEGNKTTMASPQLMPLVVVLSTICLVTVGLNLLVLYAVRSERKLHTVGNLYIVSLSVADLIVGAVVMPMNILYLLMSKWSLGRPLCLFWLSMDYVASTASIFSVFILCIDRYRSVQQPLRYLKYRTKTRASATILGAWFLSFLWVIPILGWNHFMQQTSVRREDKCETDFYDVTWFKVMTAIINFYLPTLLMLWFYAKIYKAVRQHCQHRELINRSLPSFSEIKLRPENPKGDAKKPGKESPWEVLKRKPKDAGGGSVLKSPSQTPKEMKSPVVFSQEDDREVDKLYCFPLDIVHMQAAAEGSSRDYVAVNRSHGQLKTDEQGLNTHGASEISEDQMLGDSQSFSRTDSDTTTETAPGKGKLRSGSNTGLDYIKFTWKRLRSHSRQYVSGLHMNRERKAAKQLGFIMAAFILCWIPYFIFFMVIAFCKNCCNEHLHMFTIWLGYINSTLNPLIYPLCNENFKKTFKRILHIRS
# test_summary: Binding affinity at human cortical Histamine 1 receptor
Exercise: state measured log10(Ki) for each of the compounds provided.
Kindly note that the scale is log10 and the underlying Ki is in µM.

N#Cc1ccc(-c2ccc(OCCCN3CCC(N)CC3)cc2)cc1	0.55
CCOC(=O)N1CCN(CCCOc2ccc(-c3cccc(C#N)c3)cc2)CC1	-0.42
CCOC(=O)N1CCN(CCCOc2ccc(-c3ccc(Cl)cc3)cc2)CC1	-0.45
N#Cc1ccc(-c2ccc(OCCCN3CC[C@@H](N)C3)cc2)cc1	1.14
CCOC(=O)N1CCN(CCCOc2ccc(-c3ccccc3[N+](=O)[O-])cc2)CC1	-0.79

Field: log10(Ki). Fill in for each record below.
1. N#Cc1ccc(-c2ccc(OCCCN3CC[C@@H](O)C3)cc2)cc1
2. N#Cc1ccc(-c2ccc(OCCCN3CCCC3)cc2)cc1
3. CCOC(=O)N1CCN(CCCOc2ccc(-c3ccc([N+](=O)[O-])cc3)cc2)CC1
4. N#Cc1ccc(-c2ccc(OCCCN3CC[C@H](O)C3)cc2)cc1

1. 0.65
2. 0.70
3. -1.09
4. 0.75
